system: MT4; test: Cytotoxicity indicative of 50% survival concentration in virus-uninfected MT-4 cells.; format: functional; conditions: Homo sapiens
ATTRIBUTE_MEASURED: CC50 (µg/mL)
Quick note: give the figure in µg/mL, leave out the unit.

1) CNc1ncnc2c1ncn2[C@@H]1SC(CO)C[C@@H]1N=[N+]=[N-] (single isomer, unassigned)
48.1

Recorded CC50 for Cc1cn([C@@H]2S[C@H](CO)C[C@@H]2N=[N+]=[N-])c(=O)[nH]c1=O , please?
56.1

What do we get for Cc1cn([C@H]2C[C@H](N=[N+]=[N-])[C@@H](CO)O2)c(=O)[nH]c1=O ?
0.52

Now try [N-]=[N+]=N[C@H]1C[C@@H](CO)S[C@H]1n1cnc2c(N)ncnc21 .
66.6

Also, CNc1ncnc2c1ncn2[C@H]1S[C@H](CO)C[C@@H]1N=[N+]=[N-] please.
61.5

Again, but for [N-]=[N+]=N[C@H]1C[C@@H](CO)S[C@@H]1n1cnc2c(N)ncnc21
17.3

Another compound: Cc1cn([C@H]2S[C@H](CO)C[C@@H]2N=[N+]=[N-])c(=O)[nH]c1=O
63.5
